// values below are reported MIC
system: Mycobacterium tuberculosis; assay: Antitubercular activity against multidrug resistant Mycobacterium tuberculosis RF21212 incubated for 5 days by microtiter plate method; assay type: functional; conditions: Mycobacterium tuberculosis, RF21212, 120 h; time 5 day
Endpoint: MIC (µM)

• O=C1C(Cl)=C(N2C(=O)C(Cl)C2c2ccc([N+](=O)[O-])cc2)C(=O)c2ccccc21 (stereo unspecified) = 30
• O=C1C(Cl)=C(Cl)C(=O)c2ccccc21 = 55.1
• COc1ccc(C2C(Cl)C(=O)N2C2=C(Cl)C(=O)c3ccccc3C2=O)cc1 (stereo unspecified) = 31.1
• CO[C@H]1/C=C/O[C@@]2(C)Oc3c(C)c(O)c4c(O)c(c(/C=N/N5CCN(C)CC5)c(O)c4c3C2=O)NC(=O)/C(C)=C\C=C\[C@H](C)[C@H](O)[C@@H](C)[C@@H](O)[C@@H](C)[C@H](OC(C)=O)[C@@H]1C = 156
• CCOc1cc(C2C(Cl)C(=O)N2C2=C(Cl)C(=O)c3ccccc3C2=O)ccc1O (stereo unspecified) = 7.23
• NNC(=O)c1ccncc1 = 93.9

====

test system: Mycobacterium tuberculosis; assay: Antitubercular activity against multidrug resistant Mycobacterium tuberculosis BLG3381 incubated for 5 days by microtiter plate method; format: functional; details: BLG3381, 120 h, time 5 day
Consider the cut-off 60 µM. If the recorded MIC is strictly smaller, the label is Satisfied; if not, the label is Not satisfied.

- O=C1C(Cl)=C(N2C(=O)C(Cl)C2c2ccc(Cl)cc2)C(=O)c2ccccc21 (stereo not given): Satisfied
- NNC(=O)c1ccncc1 [ISONIAZID]: Not satisfied
- O=C1C(Cl)=C(Cl)C(=O)c2ccccc21 [Dichlon]: Satisfied
- O=C1C(Cl)=C(N2C(=O)C(Cl)C2c2ccc([N+](=O)[O-])cc2)C(=O)c2ccccc21 (stereo not given): Satisfied
- CO[C@H]1/C=C/O[C@@]2(C)Oc3c(C)c(O)c4c(O)c(c(/C=N/N5CCN(C)CC5)c(O)c4c3C2=O)NC(=O)/C(C)=C\C=C\[C@H](C)[C@H](O)[C@@H](C)[C@@H](O)[C@@H](C)[C@H](OC(C)=O)[C@@H]1C [RIFAMPIN]: Not satisfied
